- System: HCV genotype 1b subgenomic replicon
- ASSAY_REMARKS: HCV replicon assay, genotype 1b subgenomic replicon (ET cell line, luciferase)
- Format: cell-based
- ASSAY_SETUP: Hepatitis C virus; genotype 1b replicon ET cell line, luciferase activity measured 48 hours later; read-out: Replicon 1B pEC50 (converted)

COMPOUND	EC50 (pM)
COC(=O)N[C@H](C(=O)N1CCC[C@H]1c1ncc(-c2ccc(-c3ccc(-c4cnc(C5CCC6(CCOCC6)N5C(C)=O)[nH]4)cc3)cc2)[nH]1)C(C)C (stereo partly drawn)	12.6
COC(=O)N[C@H](C(=O)N1CCC[C@H]1c1ncc(-c2ccc(-c3ccc(-c4cnc([C@@H]5CC6(CN5C(=O)[C@@H](NC(=O)OC)C(C)C)CC(F)(F)C6)[nH]4)cc3)cc2)[nH]1)C(C)C	3.16
COC(=O)N[C@H](C(=O)N1CC2(CC1c1ncc(-c3ccc(-c4ccc(-c5cnc([C@@H]6CCCN6C(=O)[C@@H](NC(=O)OC)C(C)C)[nH]5)cc4)cc3)[nH]1)CN(S(C)(=O)=O)C2)C(C)C (stereo partly drawn)	50.1
COC(=O)N[C@H](C(=O)N1CC2(CCN(C(C)=O)CC2)CC1c1ncc(-c2ccc(-c3ccc(-c4cnc([C@@H]5CCCN5C(=O)[C@@H](NC(=O)OC)C(C)C)[nH]4)cc3)cc2)[nH]1)C(C)C (stereo partly drawn)	200
COC(=O)N[C@H](C(=O)N1CCC[C@H]1c1nc(-c2ccc(-c3ccc(-c4c[nH]c([C@@H]5CC6(CN5C(=O)[C@@H](NC(=O)OC)C(C)C)SCCS6)n4)cc3)cc2)c[nH]1)C(C)C	3.98
COC(=O)N[C@H](C(=O)N1CC2(CCOCC2)C[C@H]1c1nc(-c2ccc(-c3ccc(-c4cnc([C@@H]5CC6(CCOCC6)CN5C(=O)[C@@H](NC(=O)OC)C(C)C)[nH]4)cc3)cc2)c[nH]1)C(C)C	12.6
[2H]C1([2H])OC2(C[C@@H](c3ncc(-c4ccc(-c5ccc(-c6cnc([C@@H]7CCCN7C(=O)[C@@H](NC(=O)OC)C(C)C)[nH]6)cc5)cc4)[nH]3)N(C(=O)[C@@H](NC(=O)OC)C(C)C)C2)OC([2H])([2H])C1([2H])[2H]	7.94
CC[C@H](NC(=O)OC)C(=O)N1C(c2nc(-c3ccc(-c4ccc(-c5cnc([C@@H]6CCCN6C(=O)[C@@H](NC(=O)OC)C(C)C)[nH]5)cc4)cc3)c[nH]2)CCC12CCC(F)(F)CC2 (stereo partly drawn)	15.8
COC(=O)N[C@H](C(=O)N1CCC[C@H]1c1ncc(-c2ccc(-c3ccc(-c4cnc([C@@H]5CC6(CN5C(=O)[C@@H](NC(=O)OC)C(C)C)O[C@@H](C)[C@H](C)O6)[nH]4)cc3)cc2)[nH]1)C(C)C	10

----------
- System: HCV genotype 1b subgenomic replicon
- ASSAY_REMARKS: HCV replicon assay, genotype 1b subgenomic replicon (ET cell line, luciferase)
- Format: cell-based
- ASSAY_SETUP: Hepatitis C virus; genotype 1b replicon ET cell line, luciferase activity measured 48 hours later; read-out: Replicon 1B pEC50 (converted)
Readings of EC50 for the listed compounds

COMPOUND	EC50
COC(=O)N[C@H](C(=O)N1CC2(CC1c1ncc(-c3ccc(-c4ccc(-c5cnc([C@@H]6CCCN6C(=O)[C@@H](NC(=O)OC)C(C)C)[nH]5)cc4)cc3)[nH]1)CN(C(C)=O)C2)C(C)C (stereo partly drawn)	0.158 nM
COC(=O)N[C@H](C(=O)N1CCC[C@H]1c1ncc(-c2ccc(-c3ccc(-c4c[nH]c(C5CCC6(CCS(=O)(=O)CC6)N5C(=O)[C@@H](NC(=O)OC)C(C)C)n4)cc3)cc2)[nH]1)C(C)C (stereo partly drawn)	0.316 nM
COC(=O)N[C@H](C(=O)N1CC2(CC1c1ncc(-c3ccc(-c4ccc(-c5cnc([C@@H]6CCCN6C(=O)[C@@H](NC(=O)OC)C(C)C)[nH]5)cc4)cc3)[nH]1)CN(C(=O)OC(C)(C)C)C2)C(C)C (stereo partly drawn)	0.01 nM

src = patent US9814699B2
